Sourced from patent US10851062B2

- assay_protocol: Pharmacokinetic evaluation in rats
- Format: in vivo, Sprague-Dawley rats
- assay_setup: male, Sprague-Dawley, plasma; rat, IV, 3 mg/kg single dose
- Procedure: 6 male Sprague-Dawley rats (7-8 weeks old, and weighing approximately 210 g) were divided into 2 groups with 3 rats in each group. […] Immediately after the collection of the blood sample, the test tube was gently inverted at least 5 times to ensure sufficient mixing and then placed on ice. […] The concentration of the compound of the present disclosure in plasma was determined by LC-MS/MS. […]
Assignment: determine reported AUC(0-inf) for the given compounds.
Give bare numbers, in ng·h/mL.

{"columns": ["compound", "AUC(0-inf), ng·h/mL"],
 "data": [
  ["[2H]C([2H])(NC(=O)c1nc(C)c2cc(Oc3ccccc3)ccc2c1O)C(=O)O [Compound 11]", 51600],
  ["[2H]c1c([2H])c([2H])c(Oc2ccc3c(O)c(C(=O)NCC(=O)O)nc(C)c3c2)c([2H])c1[2H] [Compound 32]", 55900]
]}

Kindly consider the entry below.
Enquiry: Quick one: AUC(0-inf) of Cc1nc(C(=O)NCC(=O)O)c(O)c2ccc(Oc3ccccc3)cc12 [FG-4592, reference compound] ?
Return: 63800
